# tested-on: purified recombinant human Aggrecanase-1 (rAgg1) (Homo sapiens, UniProt O75173)
# Sequence (O75173 213-837): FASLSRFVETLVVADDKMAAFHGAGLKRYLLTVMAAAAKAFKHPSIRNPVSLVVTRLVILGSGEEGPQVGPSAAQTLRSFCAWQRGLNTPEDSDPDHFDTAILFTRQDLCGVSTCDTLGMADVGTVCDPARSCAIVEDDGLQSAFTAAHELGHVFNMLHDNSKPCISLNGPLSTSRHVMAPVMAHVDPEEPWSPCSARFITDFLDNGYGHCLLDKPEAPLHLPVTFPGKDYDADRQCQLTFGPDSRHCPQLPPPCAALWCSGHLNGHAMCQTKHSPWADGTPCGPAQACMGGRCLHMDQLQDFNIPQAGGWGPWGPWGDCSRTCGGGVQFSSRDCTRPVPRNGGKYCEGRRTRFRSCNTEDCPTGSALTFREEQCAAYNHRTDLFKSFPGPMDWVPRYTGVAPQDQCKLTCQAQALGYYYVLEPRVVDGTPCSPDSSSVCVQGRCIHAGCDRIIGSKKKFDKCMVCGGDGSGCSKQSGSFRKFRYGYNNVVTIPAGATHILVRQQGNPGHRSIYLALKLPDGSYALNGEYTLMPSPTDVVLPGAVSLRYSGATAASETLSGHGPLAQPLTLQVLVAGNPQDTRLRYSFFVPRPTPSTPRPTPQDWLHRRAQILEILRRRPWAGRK
# protocol-text: In vitro fluorescence screen for Aggrecanase-1 inhibitors
# Format: biochemical
# experimental-conditions: Table 2; read-out: Agg1 IC50
attribute-measured: IC50 (nM)

A: O=C(O)CC[C@H](NC(=O)c1ccc2c(c1)Cc1ccccc1-2)C(=O)NC12CC3CC(CC(C3)C1)C2
B: COc1cc(CNC(=O)[C@H](CCC(=O)O)NC(=O)c2ccc(-c3ccc(O)cc3)cc2)cc(OC)c1OC [Example 17V]
Look at A and B . Which one has the lower recorded IC50 number? Answer with the label corresponding to your selection.
B
(B: 90 nM, A: 372 nM)

a: CC(C)(Cc1ccccc1)NC(=O)[C@H](CCC(=O)O)NC(=O)c1ccc(Br)cc1 [Example 18E]
b: COc1cccc(COc2ccc(-c3ccc(C(=O)N[C@@H](CCC(=O)O)C(=O)NC(C)(C)Cc4ccccc4)cc3)cc2)c1 [Example 19F]
Look at a and b . Which one has the lower recorded IC50 number? Answer with the label corresponding to your selection.
b
(b: 68 nM, a: 2200 nM)
